Target: Recombinant human cathepsin A (Homo sapiens)
Construct: Recombinant human cathepsin A (residues 29-480, with a C-terminal 10-His tag); 10-His (C)
Sequence (P10619 29-326 limits assumed): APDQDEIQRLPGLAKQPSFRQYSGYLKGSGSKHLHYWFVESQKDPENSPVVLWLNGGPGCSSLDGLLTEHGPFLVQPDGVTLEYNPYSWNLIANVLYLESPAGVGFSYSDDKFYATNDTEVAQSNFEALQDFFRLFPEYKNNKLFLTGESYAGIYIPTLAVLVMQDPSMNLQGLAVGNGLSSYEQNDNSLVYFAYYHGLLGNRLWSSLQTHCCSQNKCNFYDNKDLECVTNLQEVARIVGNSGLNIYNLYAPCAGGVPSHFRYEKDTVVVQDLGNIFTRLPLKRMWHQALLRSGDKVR
Sequence (P10619 327-480 limits assumed): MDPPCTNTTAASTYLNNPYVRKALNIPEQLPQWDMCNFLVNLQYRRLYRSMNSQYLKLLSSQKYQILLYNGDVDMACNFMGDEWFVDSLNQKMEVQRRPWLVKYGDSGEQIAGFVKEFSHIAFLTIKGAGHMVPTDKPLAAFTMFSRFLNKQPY
Experiment: Cathepsin A inhibitory activity
Settings: activated recombinant human cathepsin A 833 ng/ml, Bodipy FL-labeled bradykinin substrate 2 μM, pH 5.5, room temperature

# compound, IC50
measured = [
    ("O=C(O)CC(Cc1ccccc1)NC(=O)c1csc(-c2ccccc2)n1 (stereo not shown)", "3.42 µM"),
    ("O=C(O)C[C@H](NC(=O)c1nc(-c2ccccc2)cs1)c1ccc(Cl)cc1Cl", "0.254 µM"),
    ("O=C(O)C[C@H](NC(=O)c1csc(-c2ccc(Cl)cc2)n1)c1ccccc1", "3.88 µM"),
    ("Cc1ccccc1-c1nc(C(=O)N[C@@H](Cc2ccc(Cl)cc2)C(=O)O)cs1", "16.6 µM"),
    ("O=C(O)C[C@H](NC(=O)c1csc(-c2ccc(Cl)cc2)n1)c1ccccc1Cl", "1.4 µM"),
    ("O=C(O)C[C@H](NC(=O)c1nc(-c2ccccc2)cs1)c1cccc(Cl)c1", "0.917 µM"),
    ("O=C(O)CC(NC(=O)c1nc(-c2ccccc2)cs1)c1ccccc1Cl (stereo not shown)", "0.455 µM"),
    ("O=C(O)C[C@H](NC(=O)c1nc(-c2ccccc2)cs1)c1ccccc1F", "1.75 µM"),
    ("COc1cccc([C@H](CC(=O)O)NC(=O)c2csc(-c3ccccc3Cl)n2)c1", "0.705 µM"),
    ("O=C(O)C[C@H](NC(=O)c1csc(-c2cccc(Cl)c2Cl)n1)c1cccc(F)c1", "0.254 µM"),
    ("O=C(O)C[C@H](NC(=O)c1csc(-c2ccc(C(F)(F)F)cc2)n1)c1cccc(Cl)c1Cl", "3.02 µM"),
    ("O=C(O)C[C@H](NC(=O)c1csc(-c2ccccc2F)n1)c1cccc(F)c1", "0.724 µM"),
    ("Cc1ccc([C@H](CC(=O)O)NC(=O)c2nc(-c3ccccc3)cs2)cc1", "0.404 µM"),
    ("O=C(O)C[C@H](NC(=O)c1csc(-c2ccccc2F)n1)c1ccccc1F", "0.659 µM"),
    ("O=C(O)CC(NC(=O)c1csc(-c2ccc(C(F)(F)F)cc2)n1)C1CCCCC1 (stereo not shown)", "11.2 µM"),
    ("Cc1ccccc1[C@H](CC(=O)O)NC(=O)c1csc(-c2ccncc2)n1", "0.805 µM"),
    ("COc1cccc([C@H](CC(=O)O)NC(=O)c2csc(-c3ccccc3)n2)c1", "2.86 µM"),
    ("O=C(O)CC(Cc1ccccc1)NC(=O)c1csc(-c2ccccc2F)n1 (stereo not shown)", "4.42 µM"),
    ("O=C(O)CC(Cc1ccccc1)NC(=O)c1csc(-c2ccccc2Cl)n1 (stereo not shown)", "1.45 µM"),
]
